Would you mind telling me the reported activity change % (negative = inhibition) of each entry?
# measured-on: Thyroid hormone receptor beta (Homo sapiens) (UniProt P10828)
# Sequence (P10828 whole entry, looked up): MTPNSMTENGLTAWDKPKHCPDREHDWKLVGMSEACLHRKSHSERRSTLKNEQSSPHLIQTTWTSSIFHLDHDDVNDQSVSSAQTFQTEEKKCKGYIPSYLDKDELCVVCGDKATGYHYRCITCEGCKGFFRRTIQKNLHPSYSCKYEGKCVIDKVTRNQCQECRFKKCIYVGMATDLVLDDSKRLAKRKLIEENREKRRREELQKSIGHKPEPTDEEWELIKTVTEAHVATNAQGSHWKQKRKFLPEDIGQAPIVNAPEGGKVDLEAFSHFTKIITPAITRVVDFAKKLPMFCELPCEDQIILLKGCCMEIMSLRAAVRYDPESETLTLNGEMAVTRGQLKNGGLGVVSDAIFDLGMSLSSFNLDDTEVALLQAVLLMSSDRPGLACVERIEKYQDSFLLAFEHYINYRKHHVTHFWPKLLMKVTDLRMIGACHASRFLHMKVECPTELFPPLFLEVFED
# assay-notes: qHTS assay for small molecule antagonists of thyroid hormone receptor beta signaling (AID 588547);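 also: cells stimulated with 0.4 nM T3 agonist during compound exposure; series mostly up to about 77 µM; % is scaled to controls: 0 for no effect and ±100 for the full control effect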
# condition: TR-UAS-bla HEK293, beta-lactamase ratio, antagonist mode, 18 h
Results filed as inconclusive are left out. The source made the active and inactive calls. Calls follow the shape of the dose curve; as a rule, active = well fitted inhibition curve with a large enough effect in the signal ratio, with a control signal flat (not every such curve was filed as active); inconclusive = small, poorly fitted or top-dose-only effect, or effect the other way, or a change in a side signal; inactive = flat fitted curve, though single readings scatter; the % refers to the signal ratio.

Example entries and their recorded answers appear below.
>  <compound>
O=CCCCC=O

>  <reported-measurement>
0.64% (inactive)

$$$$
>  <compound>
CCOC(C)=O

>  <reported-measurement>
-2.37% (inactive)

$$$$

Please state, for each entry, its recorded activity change % (negative = inhibition).
1. O=C(O)CCC(=O)C(=O)O
2. CC(C)=O
3. CC1=CCC(C(C)(C)O)CC1 (stereo not drawn)
4. CCCCC(CC)COC(=O)CC(C(=O)OCC(CC)CCCC)S(=O)(=O)O (stereo not drawn)
5. CC1(C)C(C=C(Cl)Cl)C1C(=O)OCc1cccc(Oc2ccccc2)c1 (stereo not drawn)

1: 1.53% (inactive); 2: -5.42% (inactive); 3: -18.4% (inactive); 4: -5.51% (inactive); 5: 3.43% (inactive) [middle of 4 runs]

Entry CCOc1ccc2c(c1)C(C)=CC(C)(C)N2 : activity change % (negative = inhibition) on Thyroid hormone receptor beta (Homo sapiens) (UniProt P10828) = 8.54% (inactive)
